system: OVCAR-4 ovarian; assay: NCI tumour cell line growth inhibition, 48 h
assay-metric: TGI

* O=C1c2ccccc2-c2c1c1ccccc1c(=O)n2CCCCNCCCn1c2c(c3ccccc3c1=O)C(=O)c1ccccc1-2 | 15.5 µM
* CCOC(=O)c1cnn2c1ncc1c(=O)n(NC(N)=O)ccc12 | > 100 µM
* CCNC(C)Cc1ccccc1 (stereo unspecified) | > 100 µM
* Nc1c(C(=O)c2cccc(CCCN3CCOCC3)c2)cnn1-c1ccc(F)cc1 | > 25 µM
* CCOC(=O)C1(C(N)=O)C(=O)c2ccncc2C1=O (stereo unspecified) | > 100 µM
* Cc1ccc(NC(=O)c2cc3cc(N=Nc4ccc(Br)cc4)ccc3oc2=O)cc1 | > 100 µM
* Cc1c2cc[n+](C)cc2c(C)c2c1sc1ccccc12 | 11.4 µM
* COc1c(C=O)c2c(c(OC)c1OC)-c1ccc(OC)c(=O)cc1[C@@H](NC(C)=O)CC2 | > 100 µM
* O=S(=O)(O)c1c(Cl)cc(O)c2ncccc12 | > 100 µM
* CCC(C#N)(c1ccccc1)N(CCc1ccccc1)C(=O)c1ccccc1 (stereo unspecified) | 44 µM
* O=C1OC[C@@H]2[C@@H](O)CCCCCN12 | > 100 µM

###

Catalogue of compounds with associated TGI
tested on: SK-MEL-2 melanoma; experiment: NCI tumour cell line growth inhibition, 48 h
assay-metric: TGI (µM)

* N#Cc1c(-c2ccccc2)nc(SCC2CO2)nc1N1CCOCC1 (stereo not drawn) | 75.7
* Cc1c(N2CCCC2)cc2c(c1NC(=O)c1ccccc1Cl)C(C)(C)CC2(C)C | 30
* COc1ccc2[nH]c(=O)c3c4ccccc4cn3c2c1 | 7.66
* CC(=O)ON(C(C)=O)c1ccc(-c2nc3ccccc3s2)cc1 | 67.1
* COc1cc(C(=O)/C=C/c2c(C)n([O-])c3ccc(C)cc3[n+]2=O)cc(OC)c1OC | 31.2
* Cc1nc(-c2cccc(Nc3nc(-c4ccc(Cl)cc4)cs3)c2)cs1 | 18.9
* CC1=NCCN=C(C)C1N=Nc1ccc2nc(C)[nH]c2c1 | 46.3
* NNC(=O)CSc1nc2ccc(I)cc2c(=O)n1Cc1ccccc1 | 46
* Cc1c2cc[n+](C)cc2c(C)c2c1sc1ccccc12 | 7.71
* C/C(=N\NC(=O)c1sc(=S)n(C)c1N)c1cc2ccccc2o1 | 37
* COc1ccccc1/C=C(\C#N)c1ccccc1 | 94.8
* COc1ccc2oc(=O)cc(C(c3ccc[nH]3)c3ccc[nH]3)c2c1 | 13.2
* Cc1ccccc1C(=O)c1c(O)c2c(c(O)c1Br)CCCC2 | 31.3
* CC[C@@]1(N(C)C)C(=O)OCc2c1cc1n(c2=O)Cc2cc3ccccc3nc2-1 | 77.5

###

Catalogue of molecules with associated TGI
test system: UO-31 renal; test: NCI tumour cell line growth inhibition, 48 h
assay-metric: TGI

• NCC(=O)NC1(c2cc3ccccc3s2)CCCCC1 = > 100 µM
• Cc1cccc(C(C)C)c1NC(=O)C(=O)CC(=O)c1sc(Nc2ccccc2Cl)nc1C = > 100 µM
• Cc1ccccc1NC(=O)C(=O)C(C#N)c1ccc(Cl)cc1 (stereo not drawn) = > 100 µM

###

Catalogue of molecules with associated TGI
tested on: MALME-3M melanoma; test: NCI tumour cell line growth inhibition, 48 h
assay-metric: TGI (µM)

* O=C(NC1CCN(Cc2ccccc2)CC1)c1cc(-c2ccncc2)nc2ccc(Cl)cc12 | 26.9
* CCOC(=O)c1ccc2[nH]c(-c3ccc(S(=O)(=O)F)cc3)cc(=O)c2c1 | 90.6
* CCc1nc(N)nc(N)c1-c1ccc(NCCN)c([N+](=O)[O-])c1 | 40.7
* Cc1ccc([N+](=O)[O-])cc1NC(=O)Nc1cccc(F)c1 | 51.8
* COc1cc(NS(C)(=O)=O)ccc1Nc1c2ccc([N+](=O)[O-])cc2nc2c(C)cccc12 | 7.07

From: PubChem BioAssay (NCI)
